# assay text: Stability in simulated gastric fluid
# Assay type: in vitro ADME
# experimental context: 2 μM, 37° C., pH 1.5, 24 h
Where a SMILES comes first, the peptide text is derived from it. [ ]: non-standard residue; d: D form. ξ: configuration not given here. ξαMeBip(2'-Et,4'-OMe) = CCc1cc(OC)ccc1-c1ccc(CC(C)(N)C(=O)O)cc1; ξαMe(hhPhe) = CC(N)(CCCc1ccccc1)C(=O)O; ξαMePhe(2-F) = CC(N)(Cc1ccccc1F)C(=O)O; ξαMeP = CC1(C(=O)O)CCCN1; ξαMeS = CC(N)(CO)C(=O)O
For each record, write down the corresponding % degradation in 24 h when incubated with simulated gastric fluid.
Answers are plain numbers, in %.

{"columns": ["molecule", "result"],
 "data": [
  ["CCc1cc(OC)ccc1-c1ccc(CC(C)(NC(=O)[C@H](CC(=O)O)NC(=O)[C@H](CO)NC(=O)[C@@H](NC(=O)[C@H](Cc2ccccc2)NC(=O)[C@@H](NC(=O)CNC(=O)[C@H](CCC(=O)O)NC(=O)C2(C)CCCN2C(=O)[C@H](Cc2c[nH]cn2)NC(=O)[C@@H](N)C(C)C)[C@@H](C)O)[C@@H](C)O)C(=O)NC(C)(CCCc2ccccc2)C(N)=O)cc1 (some centres unmarked) [compound 140] (H-VH[ξαMeP]EGTFTSD[ξαMeBip(2'-Et,4'-OMe)][ξαMe(hhPhe)]-NH2)", 100]
]}

The molecule listed as CCc1cc(OC)ccc1-c1ccc(CC(C)(NC(=O)[C@H](CC(=O)O)NC(=O)C(C)(CO)NC(=O)[C@@H](NC(=O)C(C)(Cc2ccccc2F)NC(=O)[C@@H](NC(=O)CNC(=O)[C@H](CCC(=O)O)NC(=O)[C@H](C)NC(=O)[C@H](Cc2c[nH]cn2)NC(=O)[C@@H](N)C(C)C)[C@@H](C)O)[C@@H](C)O)C(=O)NC(C)(CCCc2ccccc2)C(N)=O)cc1 (some centres unmarked) [compound 170] (H-VHAEGT[ξαMePhe(2-F)]T[ξαMeS]D[ξαMeBip(2'-Et,4'-OMe)][ξαMe(hhPhe)]-NH2) has a reported % degradation in 24 h when incubated with simulated gastric fluid of 52
